# Test system: PXR homodimer (NR concentration 270 nM)
# assay_overview: PBM binding z-score (relative to random genomic background probes); higher = stronger binding; sequences stand for … in GC…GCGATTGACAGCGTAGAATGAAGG
Label Y when PBM binding z-score is at or above -0.04; anything below gets N.

input_sequence: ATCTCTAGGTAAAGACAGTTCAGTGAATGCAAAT
group_label: Y
//
input_sequence: CATACTGGGCCAAGGTCATTGATCAGTCAAAGCA
group_label: Y
//
input_sequence: GCAATTAGTTGAAAGGGCAACCGAATGATTCTCG
group_label: Y
//
input_sequence: TAGCCTAGGTCATTGGGCCACTATAGTACGCATC
group_label: N
//
input_sequence: CAGAGTAGGTTATGGGGCATTCAGGCAACGGTGA
group_label: Y
//
input_sequence: ATCGAAAGGTCGAAGGTGAGTTTACCCACCCGAA
group_label: Y
//
input_sequence: GCTAGTTGGTCAGTAAAGGGTCACACACCGGTCG
group_label: Y
//
input_sequence: GCGACTGGGGTATCAGCAGGTTACCATAACTTAA
group_label: N
//
input_sequence: CAAACTAGGTCACGAAAGGTCATAGTCGAATGAC
group_label: Y
//
input_sequence: CAAACTCGGTCACAGAGGTCAAAGTCCGTGCGTA
group_label: Y
//
input_sequence: CCTAGTTGTTCAAGGTCACACACGCTATAGGTAC
group_label: Y
//
input_sequence: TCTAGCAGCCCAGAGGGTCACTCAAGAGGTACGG
group_label: N
//
input_sequence: CGTCAAAGTTCAACAAAGGTAACGTAAAGCACGC
group_label: Y
//
input_sequence: GCAGACAGGTGAAACGAAGGTAACTCAGGGTGGC
group_label: N
//
input_sequence: ATCGAAACGTCGAAGGTGAGTATACCCACCCGAA
group_label: N
//
input_sequence: TCTTGTGGATCAAAGGTTAAGAAAGCCGAAGCCT
group_label: N
//
input_sequence: CCTTGTTGGTCAGGAGGTCACACACCGGATATGA
group_label: Y
//
input_sequence: ACTATTCGTTGAGACGAGGGCAACCGATAGGTTG
group_label: Y
//
input_sequence: ACTATAAGTTGAGACGAGGGCAACCGATAGGTTG
group_label: Y
//
input_sequence: TCTATTAGTTGGTTAGGGCAACCGAAACAGCGGA
group_label: Y
//
input_sequence: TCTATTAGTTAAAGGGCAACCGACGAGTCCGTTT
group_label: Y
//
input_sequence: ACAGGCAGGTGATGAAGGTAACTCAGGCTATCAT
group_label: Y
//
input_sequence: ATATGTAGGTTATCGGGTCATTCAATTTGCGCAT
group_label: Y
//
input_sequence: ACTAGCAGGCCAAGGGTCTCTCAAGATTAGTCCG
group_label: N
//
input_sequence: TCTTGTTGATCAACAGGAGGTTAAGAAAGATCGA
group_label: N

* * *

# System: VDR:RXRa (NR concentration 270 nM, RXRa partner concentration 90 nM)
# assay_overview: PBM binding z-score (relative to random genomic background probes); higher = stronger binding; sequences stand for … in GC…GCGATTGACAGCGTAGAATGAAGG
Returns one of True or False; True when PBM binding z-score is >= 0.4.

input_sequence: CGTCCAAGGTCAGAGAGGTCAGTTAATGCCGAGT
group_label: True
--
input_sequence: TATTGTAGATCAGCAGGTTAAGAAAGCTGGCCAA
group_label: False
--
input_sequence: CGTACGAGGGCATGAGTTGATAGCAAATGCCGAT
group_label: True
--
input_sequence: TCATATAGGTAATACAGGGGAAAGTCGGCATCTA
group_label: True
--
input_sequence: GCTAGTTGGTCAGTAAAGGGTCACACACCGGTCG
group_label: True
--
input_sequence: TTACCAACGTGAAAGGTCGTTGATGCACGCCTTG
group_label: True
--
input_sequence: TAGCCTAGGCCATTGGGCCAGTATAGTACGCATC
group_label: False
--
input_sequence: AGTCAAAGTTCACTAGGTAATGTAAGATTCAGCT
group_label: True
--
input_sequence: CGTCAAAGTTCAAGGTAACGTCACAGAAAGCAGC
group_label: True
--
input_sequence: CTACCAAGGTGAACAACGTCGTTGATTACTATTC
group_label: False
--
input_sequence: TCTTGTAGAGCAACAGGAGGTTAAGAAAGATCGA
group_label: False
--
input_sequence: AATAGTTGGTCAGCTGAGGTCACACACAATTCGG
group_label: True

* * *

# System: RARg homodimer (NR concentration 270 nM)
# assay_overview: PBM binding z-score (relative to random genomic background probes); higher = stronger binding; sequences stand for … in GC…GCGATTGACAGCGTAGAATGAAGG
Please use 1 whenever PBM binding z-score is not below 2, and 0 whenever it is.

input_sequence: GATACAGGGTCAAGGCCAGATTACGCGTATTGAT
group_label: 1

input_sequence: CAAACGAGGGCATGAGTTGATAGCAAATGCCGAT
group_label: 0

input_sequence: GCTAGTTGGTCAGCAAAAGGTCACACACCGGTCG
group_label: 1

input_sequence: GCAGGCAGGTGAAACGCAGGTAACTCAGGGTGGC
group_label: 0

input_sequence: TTACCAAGGTGAATGTCGTTGATCCCTCTGTAGA
group_label: 0

input_sequence: AGAGACAGGTGAGTGAAGGTAACTCAGCTGGACG
group_label: 0

input_sequence: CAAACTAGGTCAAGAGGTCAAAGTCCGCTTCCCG
group_label: 1

input_sequence: AGAACGAGGGCGCGCTGAGTTGATAGCAGAGTAG
group_label: 0

input_sequence: CCTCCTGGGCCATCAGGTCATTGATATCAACGTT
group_label: 0

input_sequence: AGAACGAGGACAATGAGTTGATAGCACGGGTGGC
group_label: 0

input_sequence: CGTCCAAGGTCAATGCTCGGTCAGTGAAAGCATT
group_label: 1

input_sequence: GCTGCTAGGTCAACTGATGGTCAGCGAAAGCTCG
group_label: 1

input_sequence: CCTACTGGGCCAAAGGTCACTGATTCCAATGCTC
group_label: 1

input_sequence: CTCGAAAGGTCGGTCGAGGTGAGTATACGGATAA
group_label: 1

input_sequence: ATATGTAGGTAAGCTGGGGTCATTCAGACTAGGC
group_label: 1

input_sequence: TCTTGTAGCTCAGCAGGTTAAGAAAGCTGGCCAA
group_label: 0

input_sequence: TATACAGGGTCAAAGGCCAGTGTACGAATGTCGA
group_label: 1

input_sequence: AGTCAAAGTCCATCTAGGTAACGTAAGATATGCT
group_label: 0

input_sequence: CCTAGTTGGTCAGGCGGTCACACACCGGATATGA
group_label: 0

input_sequence: CGAACTAGGTCATCCAGGACAGTGTATACATTGA
group_label: 1

input_sequence: CGTCCACGGTCAAAGGTCAGTGAAGAGATGACGG
group_label: 1

input_sequence: CGAACTAGGTCCTCCAGGACAGTGAATACATTGA
group_label: 0

input_sequence: TGTAGCAGGCCAGAGGGTCACTCAAGAGGTACGG
group_label: 1

input_sequence: CGAACGAGGGCATGCGTTGATAGCAAATGCCGAT
group_label: 0

input_sequence: TCATATAGGTAAACAGGTGGAAGTCCGTAAGTTA
group_label: 0

input_sequence: GCATATAGGTAATAGAAGGTGAAAGTCCGATTGT
group_label: 0

input_sequence: CCTAGTTGGTCAGGAGGACACACACCGGATATGA
group_label: 0

input_sequence: CGTCCAAGGGCAAAGGTCAGTGAAGAGATGACGG
group_label: 1

input_sequence: TCTTGTAGATCAAGCAGGTTAAGGAAGCCTGAGT
group_label: 0

input_sequence: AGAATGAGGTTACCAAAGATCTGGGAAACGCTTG
group_label: 0

input_sequence: CGTCCAAGATCAAAGGTCAGTGAAGAGATGACGG
group_label: 1

input_sequence: GCTTGTAGATCAAGGTTAAAAAAGACTAAGCTAA
group_label: 0

input_sequence: CCTATTGGGCCAAAAAGGTCATTGATGCCGATAA
group_label: 1

input_sequence: CCTTGCGGGTCAAGGTTATAGCACGGGTGGTACG
group_label: 1

input_sequence: GGAACGAGGCCATTCGAGTTGATAGCATGGCGAT
group_label: 0

input_sequence: TCATATAGGTAATACAGGAGAAAGTCGGCATCTA
group_label: 0

input_sequence: CGAACTAGGTCATCCAGGACAGTGAATACATTGA
group_label: 1

input_sequence: CGAACGAGGGGATGAGTTGATAGCAAATGCCGAT
group_label: 0

input_sequence: TCATACAGGTAAATGCTAGGTGAAAGTCCGATCT
group_label: 0

input_sequence: TCTCGGAGGGCACGAAGGTCAGAGCTTTCCAGAG
group_label: 1

input_sequence: CCGACTGGGGCAAAGGTTACTATACTCAGTACGA
group_label: 0

input_sequence: CGTCCAAGGTCACTGCTAGGTCAGTGAAAGCATT
group_label: 1

input_sequence: CCGACAGGGGCAAAGGTTACCATACTCAGTACGA
group_label: 1

input_sequence: CCTGCTAGATCAATGGTCAGCTAAAGCAGCTCGC
group_label: 0

input_sequence: ACTAGTTGGTCAGCCGAGGTCACACACAATTCGG
group_label: 1

input_sequence: CATACAGGGTCACCTAGGCCAGAGTAGGGACGGC
group_label: 1

input_sequence: GGAACGAGGGCAAAGTTGATAGCATCTGTCGACG
group_label: 0

input_sequence: AGAATGAGGTTATGAAGATCAGGGAATTGCGGTC
group_label: 0

input_sequence: TCGAGGAGGTTAGTCGGGGCATTCAGCCAACATA
group_label: 0

input_sequence: GGAACGAGGGCAAATTTGATAGCATCTGTCGACG
group_label: 0
